test system: OVCAR-8 ovarian; assay: NCI tumour cell line growth inhibition, 48 h
Metric name: TGI

CC1(C)N=C(N)N=C(N)N1c1cccc(OCCOc2ccc([N+](=O)[O-])cc2)c1; > 100 µM
O=C(CCl)N1c2ccccc2Sc2c1ccc1ccccc21; 5.48 µM
N#CC1(C#N)NC(c2ccsc2)C(C#N)(C#N)NC1c1ccsc1 (stereo not drawn); > 100 µM

----------
test system: DU-145 prostate; assay: NCI tumour cell line growth inhibition, 48 h; in the data active = GI50 below about 0.43 µM; inactive = the rest
Outcome codes: Yes (active), No (inactive)

COC(=O)CNC(=O)[C@@H](OC)[C@@H]1Cc2cc3cc(OC4CC(OC5CC(O)C(O)C(C)O5)C(O)C(C)O4)c(C)c(O)c3c(O)c2C(=O)[C@H]1OC1CC(OC2CC(OC3CC(C)(O)C(O)C(C)O3)C(O)C(C)O2)C(O)C(C)O1 (some centres undefined); Yes
Nc1cc(N)c(N)cc1N; No
O=C(CCl)N1c2ccccc2Sc2c1ccc1ccccc21; No
CN(CCOc1ccc(C#N)cc1)CCOc1ccc(C#N)cc1; No
CO/N=C(\C)c1ccc(Nc2cc(-c3ccccc3)nc3c(O)cccc23)cc1; No
Oc1ccc(CCCCCCc2ccc(O)cc2)cc1; No
C=C1CC[C@@H]2[C@](C)(COC(C)=O)[C@H](OC(C)=O)CC[C@@]2(C)[C@@H]1CC(Nc1ccc(S(=O)(=O)Nc2nccc(C)n2)cc1)C1=CCOC1=O (some centres undefined); No
Fc1ccc2[nH]c3c(NCCCN4CCOCC4)ncnc3c2c1; No
COC(=O)c1cc(C#Cc2cc(OC)ccc2OC)ccc1OC; No
Fc1cccc(COc2ccc(Nc3ncnc4cc(-c5ccc[nH]5)sc34)cc2Cl)c1; No
Clc1nc(Cl)c2c(ncn2C/C=C\Cn2cnc3c(Cl)nc(Cl)nc32)n1; No
COc1cc(-c2cn(-c3ccc(Cl)cc3)c(C)c2C(=O)C(F)(F)F)cc(OC)c1OC; No
c1cnc2[nH]cc(-c3csc(-c4cn(CCCCN5CCOCC5)c5ccccc45)n3)c2c1; No
Cn1ccnc1C(=O)/C=C/c1ccc(CC(=O)Nc2ccccc2)cc1; No
COc1c(N2CCN(CN3C(=O)C(=Nc4ccc(S(=O)(=O)Nc5ncccn5)cc4)c4ccccc43)C(C)C2)c(F)cc2c(=O)c(C(=O)O)cn(C3CC3)c12 (centres undefined); No
CN(C)C(=S)N=Nc1c(O)[nH]c2ccccc12; No
COc1cc[nH]c1/C=C1\C(=O)Nc2ccc(F)c(I)c21; No
Clc1nc(Cl)c2ncn(Cc3ccc(COc4cccc(OCc5ccc(Cn6cnc7c(Cl)nc(Cl)nc76)cc5)c4)cc3)c2n1; No
C#CC[C@@H]1C[C@]2(C)[C@H]3CC=C4[C@H]5CC(C)(C)CC[C@]5(C(=O)NCCCCN)CC[C@@]4(C)[C@]3(C)CC[C@H]2C(C)(C)[C@H]1OC(C)=O; No

----------
test system: NCI-H522 lung; assay: NCI tumour cell line growth inhibition, 48 h
Metric name: GI50

COc1cc[nH]c1/C=C1\C(=O)Nc2ccc(F)c(I)c21; > 25 µM
CCOP(=O)(OCC)C(NC(c1ccccc1)c1ccccc1)c1cccc2ccccc12 (stereo not given); 7.96 µM
O=C1C(Cl)=C(Nc2cccc(O)c2)C(=O)N1c1cc(Cl)c(Cl)cc1Cl; 14.3 µM
c1cnc2[nH]cc(-c3csc(-c4cn(CCCCN5CCOCC5)c5ccccc45)n3)c2c1; 1.95 µM
ClCc1c(Cl)c(Cl)c(Cl)c(CCl)c1Cl; 1.51 µM
